Each entry below carries its recorded MIC.
Tested on: S. pneumoniae 1/1
assay name: MIC determination
Assay type: cell-based, Streptococcus pneumoniae
test settings: Streptococcus pneumoniae; S. pneumoniae 1/1; 18 hours at 37° C., 5% CO2; read-out: Minimum inhibitory concentrations (MIC)
measured property: MIC (µg/mL)

smiles structure: COc1ccc(C[C@H](N)C(=O)N[C@H]2[C@@H](O)[C@H](n3cnc4c(N(C)C)ncnc43)O[C@@H]2CO)cc1
measured property: MIC
number: 8
//
smiles structure: C[C@@H]1O[C@@H]1P(=O)(O)O
measured property: MIC
number: 32
//
smiles structure: CO/N=C(\C(=O)N[C@@H]1C(=O)N2C(C(=O)O)=C(COC(C)=O)CS[C@H]12)c1csc(N)n1
measured property: MIC
number: 8
//
smiles structure: C[C@H]1c2cccc(O)c2C(=O)C2=C(O)[C@]3(O)C(=O)C(C(N)=O)=C(O)[C@@H](N(C)C)[C@@H]3[C@@H](O)[C@@H]21
measured property: MIC
number: 2

----------
System: Staphylococcus aureus ATCC 25923
assay name: MIC determination
Assay type: cell-based
test settings: Staphylococcus aureus, ATCC25923; S. aureus 25923; 18 hours at 37° C.; read-out: Minimum inhibitory concentrations (MIC)
Positions of bridges follow the written chain, without caps; N, C: chain ends. Non-standard residues stand in square brackets, D forms with d. Residues, ends and D or L forms follow the SMILES beside them. *: point of attachment. Ileψ(thiazoline)Cys = CC[C@H](C)[C@H](N)C1=N[C@H](C(=O)*)CS1; dOrn = NCCC[C@@H](N)C(=O)O
# maps each entry to its MIC

compound: [H]/N=C(/N)N[C@H]1[C@H](O)[C@@H](O)[C@H](O[C@@H]2O[C@@H](C)[C@](O)(C=O)[C@H]2O[C@@H]2O[C@@H](CO)[C@H](O)[C@@H](O)[C@@H]2NC)[C@@H](N/C(N)=N\[H])[C@@H]1O
sign qualifier: =
MIC, mg/L: 4
--
compound: CC1(C)S[C@@H]2[C@H](NC(=O)[C@H](N)c3ccccc3)C(=O)N2[C@H]1C(=O)O
sign qualifier: =
MIC, mg/L: 0.5
--
compound: CO/N=C(\C(=O)N[C@@H]1C(=O)N2C(C(=O)O)=C(COC(C)=O)CS[C@H]12)c1csc(N)n1
sign qualifier: =
MIC, mg/L: 4
--
compound: CC[C@H](C)[C@H](N)C1=N[C@H](C(=O)N[C@@H](CC(C)C)C(=O)N[C@H](CCC(=O)O)C(=O)N[C@H](C(=O)N[C@H]2CCCCNC(=O)[C@H](CC(N)=O)NC(=O)[C@@H](CC(=O)O)NC(=O)[C@H](Cc3cnc[nH]3)NC(=O)[C@@H](Cc3ccccc3)NC(=O)[C@H]([C@@H](C)CC)NC(=O)[C@@H](CCCN)NC2=O)[C@@H](C)CC)CS1 [Bacitracin] ({Ileψ(thiazoline)Cys}-L[dE]IK[dOrn]I[dF]H[dD]N; lactam 4-C)
sign qualifier: >
MIC, mg/L: 128

----------
System: Streptococcus pneumoniae ATCC 49619
assay name: MIC determination
Format: cell-based
test settings: Streptococcus pneumoniae, ATCC49619; S. pneumoniae 49619; 18 hours at 37° C., 5% CO2; read-out: Minimum inhibitory concentrations (MIC)
Positions of bridges follow the written chain, without caps; N, C: chain ends. Non-standard residues stand in square brackets, D forms with d. Residues, ends and D or L forms follow the SMILES beside them. *: point of attachment. Ileψ(thiazoline)Cys = CC[C@H](C)[C@H](N)C1=N[C@H](C(=O)*)CS1; dOrn = NCCC[C@@H](N)C(=O)O
Measured MIC accompanies every entry in the list below.
measured property: MIC (µg/mL)

compound: CC(=O)O[C@H]1C[C@@]2(C)[C@@H](C[C@@H](O)[C@H]3[C@@]4(C)CC[C@@H](O)[C@@H](C)[C@@H]4CC[C@@]32C)/C1=C(\CCC=C(C)C)C(=O)O [Fusidic acid]
number: 4
//
compound: Cc1onc(-c2ccccc2)c1C(=O)N[C@@H]1C(=O)N2[C@@H]1SC(C)(C)[C@@H]2C(=O)O [Oxacillin]
number: 2
//
compound: CO/N=C(\C(=O)N[C@@H]1C(=O)N2C(C(=O)O)=C(COC(C)=O)CS[C@H]12)c1csc(N)n1 [Cefotaxime]
number: 0.25
//
compound: CC[C@H](C)[C@H](N)C1=N[C@H](C(=O)N[C@@H](CC(C)C)C(=O)N[C@H](CCC(=O)O)C(=O)N[C@H](C(=O)N[C@H]2CCCCNC(=O)[C@H](CC(N)=O)NC(=O)[C@@H](CC(=O)O)NC(=O)[C@H](Cc3cnc[nH]3)NC(=O)[C@@H](Cc3ccccc3)NC(=O)[C@H]([C@@H](C)CC)NC(=O)[C@@H](CCCN)NC2=O)[C@@H](C)CC)CS1 [Bacitracin] ({Ileψ(thiazoline)Cys}-L[dE]IK[dOrn]I[dF]H[dD]N; lactam 4-C)
number: 32

----------
Test system: Klebsiella pneumoniae ATCC 33495
assay name: MIC determination
Format: cell-based
test settings: Klebsiella pneumoniae, ATCC33495; K. pneumonia 33495; 18 hours at 37° C.; read-out: Minimum inhibitory concentrations (MIC)
Listed here are compounds together with their documented MIC.

smiles structure: Cc1onc(-c2ccccc2)c1C(=O)N[C@@H]1C(=O)N2[C@@H]1SC(C)(C)[C@@H]2C(=O)O
tgt: Klebsiella pneumoniae ATCC 33495
MIC: > 128 µg/mL
--
smiles structure: C[C@@H]1O[C@@H]1P(=O)(O)O
tgt: Klebsiella pneumoniae ATCC 33495
MIC: > 128 µg/mL
--
smiles structure: Cc1onc(-c2ccccc2Cl)c1C(=O)N[C@@H]1C(=O)N2[C@@H]1SC(C)(C)[C@@H]2C(=O)O
tgt: Klebsiella pneumoniae ATCC 33495
MIC: > 128 µg/mL
--
smiles structure: NC[C@H]1O[C@H](O[C@H]2[C@H](O)[C@@H](O[C@H]3O[C@H](CO)[C@@H](O)[C@H](N)[C@H]3O)[C@H](N)C[C@@H]2N)[C@H](O)[C@@H](O)[C@@H]1O
tgt: Klebsiella pneumoniae ATCC 33495
MIC: 4 µg/mL

----------
System: Staphylococcus aureus ATCC 25923
assay name: MIC determination
Format: cell-based
test settings: Staphylococcus aureus, ATCC25923; S. aureus 25923; 18 hours at 37° C.; read-out: Minimum inhibitory concentrations (MIC)
Each record here notes measured MIC.

molecule: CCN1CCN(C(=O)N[C@@H](C(=O)N[C@@H]2C(=O)N3[C@@H]2SC(C)(C)[C@@H]3C(=O)O)c2ccccc2)C(=O)C1=O
MIC (µg/mL): 0.5
--
molecule: CCC[C@@H]1C[C@@H](C(=O)N[C@@H]([C@H]2O[C@H](SC)[C@H](O)[C@@H](O)[C@H]2O)[C@H](C)Cl)N(C)C1
MIC (µg/mL): 0.25
--
molecule: NC[C@H]1O[C@H](O[C@H]2[C@H](O)[C@@H](O[C@H]3O[C@H](CO)[C@@H](O)[C@H](N)[C@H]3O)[C@H](N)C[C@@H]2N)[C@H](N)C[C@@H]1O
MIC (µg/mL): 0.5
--
molecule: O=C(N[C@H](CO)[C@H](O)c1ccc([N+](=O)[O-])cc1)C(Cl)Cl
MIC (µg/mL): 8
--
molecule: NC[C@H]1O[C@H](O[C@H]2[C@H](O)[C@@H](O[C@H]3O[C@H](CO)[C@@H](O)[C@H](N)[C@H]3O)[C@H](N)C[C@@H]2N)[C@H](O)[C@@H](O)[C@@H]1O
MIC (µg/mL): 2
--
molecule: C[C@@H]1O[C@@H]1P(=O)(O)O
MIC (µg/mL): 8
--
molecule: COc1ccc(C[C@H](N)C(=O)N[C@H]2[C@@H](O)[C@H](n3cnc4c(N(C)C)ncnc43)O[C@@H]2CO)cc1
MIC (µg/mL): 32
--
molecule: Cc1onc(-c2ccccc2)c1C(=O)N[C@@H]1C(=O)N2[C@@H]1SC(C)(C)[C@@H]2C(=O)O
MIC (µg/mL): 0.125
--
molecule: CC(=O)O[C@H]1C[C@@]2(C)[C@@H](C[C@@H](O)[C@H]3[C@@]4(C)CC[C@@H](O)[C@@H](C)[C@@H]4CC[C@@]32C)/C1=C(\CCC=C(C)C)C(=O)O
MIC (µg/mL): 0.25
--
molecule: COc1cc(Cc2cnc(N)nc2N)c2c(c1OC)OC(C1CC1)C=C2 (racemic)
MIC (µg/mL): 0.063
--
molecule: CC[C@H]1OC(=O)[C@H](C)[C@@H](O[C@H]2C[C@@](C)(OC)[C@@H](O)[C@H](C)O2)[C@H](C)[C@@H](O[C@@H]2O[C@H](C)C[C@H](N(C)C)[C@H]2O)[C@](C)(O)C[C@@H](C)/C(=N\OCOCCOC)[C@H](C)[C@@H](O)[C@]1(C)O
MIC (µg/mL): 1
--
molecule: CCn1cc(C(=O)O)c(=O)c2cc(F)c(N3CCNCC3)cc21
MIC (µg/mL): 1

All figures here come from patent US20200038399A1.
